- TARGET UNDER TEST: CK2 (Homo sapiens)
- Construct: purchased Upstate (Charlottesville, Va.)
- Sequence (P68400 whole entry): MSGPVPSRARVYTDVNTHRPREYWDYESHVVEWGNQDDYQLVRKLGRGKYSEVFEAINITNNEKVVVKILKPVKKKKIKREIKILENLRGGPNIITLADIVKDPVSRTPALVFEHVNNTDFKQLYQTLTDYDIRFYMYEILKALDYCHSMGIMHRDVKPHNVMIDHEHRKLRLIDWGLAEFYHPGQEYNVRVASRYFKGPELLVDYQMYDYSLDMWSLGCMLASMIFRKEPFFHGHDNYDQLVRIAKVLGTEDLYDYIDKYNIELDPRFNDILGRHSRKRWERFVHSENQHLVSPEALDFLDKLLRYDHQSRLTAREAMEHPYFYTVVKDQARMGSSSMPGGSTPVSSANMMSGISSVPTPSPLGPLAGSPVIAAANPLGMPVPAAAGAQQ
- Sequence (P67870 whole entry partner): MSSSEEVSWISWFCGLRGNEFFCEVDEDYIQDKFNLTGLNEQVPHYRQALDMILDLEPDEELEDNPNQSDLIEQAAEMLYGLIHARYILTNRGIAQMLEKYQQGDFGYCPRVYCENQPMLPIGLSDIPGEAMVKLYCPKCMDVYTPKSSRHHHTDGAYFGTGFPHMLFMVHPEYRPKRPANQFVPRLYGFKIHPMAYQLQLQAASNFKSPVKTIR
- ASSAY OVERVIEW: Broad selectivity panel, 32P incorporation
- Type: biochemical
- APPLIED CONDITIONS: 1 μM compound, 40 μM ATP; read-out: Percent inhibition CK2
# reported inhibition at 1 µM; entries follow
Use % as the unit, but write only the number.

Fc1ccc(-c2nc3occn3c2-c2ccnc(N[C@@H]3CN4CCC3CC4)n2)cc1: 12

Exam item: Endpoint output: inhibition at 1 µM of Fc1ccc(-c2nc3occn3c2-c2ccnc(N[C@H]3CN4CCC3CC4)n2)cc1 . Value?
Marked response: 4

Exam item: Fill in the blank: the reported inhibition at 1 µM of CN(C)CC(C)(C)CNc1nccc(-c2c(-c3ccc(F)cc3)nc3occn23)n1 is ____.
Marked response: 3

Exam item: Consider the compound shown here: CC(=O)N1CCC(Nc2nccc(-c3c(-c4ccc(F)cc4)nc4occn34)n2)CC1 What is its recorded inhibition at 1 µM?
Marked response: 10
